B1: VDR (parent)
chain: VTLELSQLSMLPHLADLVSYSIQK

Variants of: B1
Test Name: protein stability index of a GFP-peptide fusion (GPS, HEK-293T) (PSI 1-6); higher = more stable;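 further: lentivirally expressed fusions sorted by FACS into six bins by GFP to DsRed ratio, PSI derived from sequencing read proportions per bin multiplied by bin number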
Measurement Parameters: c terminus: a fixed tail appended
# protein stability index annotations
Readout Kind: protein stability index

variant_designation=S19Y readout_kind="protein stability index" numeric_readout=2.42
variant_designation=S9V readout_kind="protein stability index" numeric_readout=2.74
variant_designation=S9N readout_kind="protein stability index" numeric_readout=3.47
variant_designation=Y20R readout_kind="protein stability index" numeric_readout=3.61
variant_designation=S6M readout_kind="protein stability index" numeric_readout=2.06
variant_designation=S6R readout_kind="protein stability index" numeric_readout=1.52
variant_designation=M10C readout_kind="protein stability index" numeric_readout=3.52
variant_designation=S21Y readout_kind="protein stability index" numeric_readout=2.45
variant_designation=E4A readout_kind="protein stability index" numeric_readout=2.69
variant_designation=V18P readout_kind="protein stability index" numeric_readout=1.88
variant_designation=L14S readout_kind="protein stability index" numeric_readout=1.66
variant_designation=A15Y readout_kind="protein stability index" numeric_readout=4.33
variant_designation=H13T readout_kind="protein stability index" numeric_readout=2.23
variant_designation=L5R readout_kind="protein stability index" numeric_readout=2.5
variant_designation=L3K readout_kind="protein stability index" numeric_readout=1.16
variant_designation=L11M readout_kind="protein stability index" numeric_readout=2.38
variant_designation=S6Q readout_kind="protein stability index" numeric_readout=2.54
variant_designation=T2P readout_kind="protein stability index" numeric_readout=1.42
variant_designation=V18G readout_kind="protein stability index" numeric_readout=1.78
variant_designation=L14C readout_kind="protein stability index" numeric_readout=2.09
variant_designation=D16C readout_kind="protein stability index" numeric_readout=3.86
variant_designation=V1W readout_kind="protein stability index" numeric_readout=2.08
variant_designation=L3W readout_kind="protein stability index" numeric_readout=4.09
variant_designation=I22G readout_kind="protein stability index" numeric_readout=2.47
variant_designation=S6V readout_kind="protein stability index" numeric_readout=3.64
variant_designation=S6I readout_kind="protein stability index" numeric_readout=2.48
variant_designation=E4M readout_kind="protein stability index" numeric_readout=3.22
variant_designation=Q23V readout_kind="protein stability index" numeric_readout=2.59
variant_designation=L8V readout_kind="protein stability index" numeric_readout=3.88
variant_designation=S21R readout_kind="protein stability index" numeric_readout=2.13
variant_designation=D16K readout_kind="protein stability index" numeric_readout=4.49
variant_designation=L17D readout_kind="protein stability index" numeric_readout=1.7
variant_designation=D16N readout_kind="protein stability index" numeric_readout=3.07
variant_designation=L3R readout_kind="protein stability index" numeric_readout=1.53
variant_designation=H13R readout_kind="protein stability index" numeric_readout=2.16
variant_designation=S6H readout_kind="protein stability index" numeric_readout=3.94
variant_designation=S19T readout_kind="protein stability index" numeric_readout=3.23
variant_designation=T2H readout_kind="protein stability index" numeric_readout=2.06
variant_designation=T2C readout_kind="protein stability index" numeric_readout=4.12
variant_designation=L14W readout_kind="protein stability index" numeric_readout=2.95
variant_designation=V1P readout_kind="protein stability index" numeric_readout=1.58
variant_designation=L8T readout_kind="protein stability index" numeric_readout=2.85
variant_designation=Q7H readout_kind="protein stability index" numeric_readout=3.22
variant_designation=D16V readout_kind="protein stability index" numeric_readout=3.99
variant_designation=Q23L readout_kind="protein stability index" numeric_readout=3.08
variant_designation=S19L readout_kind="protein stability index" numeric_readout=4.2
